The measured values listed here are drawn from paper PMC12062876.

This section presents molecules with their documented pIC50 values.
Assay: Cytotoxicity assay: L-6 cells
Type: cell-based
Conditions: rat skeletal myoblast (L6 cells); means of two independent assays
pIC50: −log10 of the molar value.

{"molecule": "CC(C)=CCc1cc2c(cc1O)OC[C@@H](c1ccc(O)cc1O)C2 [Compound 3, manuifolin H]", "pIC50": 3.97}
{"molecule": "CC(=O)OC(C1COc2ccc3c(c21)OC(c1ccc(O)cc1)CC3=O)C(C)(C)O (stereo not shown) [Compound 12]", "pIC50": 4.00}
{"molecule": "CC(C)=CCc1cc2c(cc1O)OCC(c1ccc(O)cc1)C2O (stereo not shown) [Compound 2, bavaisoflavanol]", "pIC50": 4.31}
{"molecule": "COc1cc2c(cc1OC)[C@@H]1C(=O)c3ccc4occc4c3O[C@@H]1CO2 [Compound 35, elliptone]", "pIC50": 4.00}
{"molecule": "COc1cc(O)ccc1[C@@H]1COc2cc(O)c(CC=C(C)C)cc2C1 [Compound 1, 2′-O-methylmanuifolin H]", "pIC50": 4.00}
{"molecule": "COc1cc(O)ccc1C1COc2cc(O)ccc2C1 (stereo not shown) [Compound 4, 7,4′-dihydroxy-2′-methoxyisoflavan]", "pIC50": 3.45}
{"molecule": "COc1cc2c(cc1OC)[C@]1(O)C(=O)c3cc4ccoc4cc3O[C@@H]1CO2 (relative stereo) [Compound 31, 12a-hydroxyerosone]", "pIC50": 3.95}

----------
This section presents compounds with their documented IC50 values.
Assay: Cytotoxicity assay: L-6 cells
Format: cell-based
Conditions: rat skeletal myoblast (L6 cells); means of two independent assays
Protocol: The pure compounds cytotoxicity was assessed against L6 cells as described in ref. [27].

{"compound": "COc1cc2c(cc1OC)[C@]1(O)C(=O)c3ccc4occc4c3O[C@@H]1CO2 [Compound 36, 12a-hydroxyelliptone]", "value_units": "µM", "IC50": 100}
{"compound": "CC1(C)C=Cc2c(ccc(-c3coc4cc(O)c(O)cc4c3=O)c2O)O1", "value_units": "µM", "IC50": 76.6}
{"compound": "CC(C)=CCc1c(O)cc2occ(-c3ccc(O)cc3)c(=O)c2c1O", "value_units": "µM", "IC50": 104}
{"compound": "O=C1c2cc3ccoc3cc2O[C@@H]2COc3cc4c(cc3[C@]12O)OCO4 (relative stereo) [Compound 30, 12a-hydroxydolineone]", "value_units": "µM", "IC50": 141}

----------
System: T. cruzi amastigotes
Experiment: Activity against intracellular T. cruzi amastigotes
Type: cell-based, Trypanosoma cruzi
Details: SI = IC50 cytotoxicity/IC50 against T. cruzi
Experimental: The bioactivity of isolated compounds against intracellular T. cruzi amastigotes grown in rat L6 […] is presented in Table 1. […] The pure compounds activity was assessed against T. cruzi amastigotes as described in ref. [27].
This section presents compounds with their documented Selectivity index values.
parameter_measured: Selectivity index

{"compound": "COc1cc2c(cc1OC)[C@]1(O)C(=O)c3cc4ccoc4cc3O[C@@H]1CO2 (relative stereo) [Compound 31, 12a-hydroxyerosone]", "target": "T. cruzi amastigotes", "parameter_measured": "Selectivity index", "recorded_number": 5.7}
{"compound": "COc1cc2c(cc1-c1coc3cc4occc4cc3c1=O)OCO2 [Compound 28, dehydroneotenone]", "target": "T. cruzi amastigotes", "parameter_measured": "Selectivity index", "recorded_number": 5.1}
{"compound": "COc1cc2c(cc1C1COc3cc(O)ccc3C1)OCO2 (stereo not shown)", "target": "T. cruzi amastigotes", "parameter_measured": "Selectivity index", "recorded_number": 0.8}
{"compound": "COc1cc2c(cc1OC)[C@@H]1C(=O)c3ccc4c(c3O[C@@H]1CO2)C=CC(C)(C)O4", "target": "T. cruzi amastigotes", "parameter_measured": "Selectivity index", "recorded_number": 1148.5}

----------
Tested on: T. cruzi amastigotes
Test: Activity against intracellular T. cruzi amastigotes
Type: cell-based, Trypanosoma cruzi
Conditions: SI = IC50 cytotoxicity/IC50 against T. cruzi
Procedure: The bioactivity of isolated compounds against intracellular T. cruzi amastigotes grown in rat L6 […] is presented in Table 1. […] The pure compounds activity was assessed against T. cruzi amastigotes as described in ref. [27].

{"compound": "C=C(CO)C1Cc2cc3c(cc2O1)OCC1c2cc4c(cc2OC31)OCO4 (stereo not drawn) [Compound 18, (2′R)-4′-hydroxyemoroidocarpan]", "Selectivity index": 2.9}
{"compound": "COc1cc2c(cc1OC)C1C(CO2)Oc2c(ccc3occc23)C1OC(C)=O (stereo not drawn) [Compound 34, 12-deoxo-12α-acetoxyelliptone]", "Selectivity index": 3.8}
{"compound": "COc1c(C(=O)/C=C(\\O)c2ccccc2)ccc2occc12 [Compound 8, pongamol]", "Selectivity index": 2.7}
{"compound": "C=C(C)[C@H]1Cc2cc3c(cc2O1)oc(=O)c1c2cc4c(cc2oc31)OCO4 [Compound 19, tephcalostan]", "Selectivity index": 1.8}

----------
System: T. cruzi amastigotes
Assay: Activity against intracellular T. cruzi amastigotes
Assay type: cell-based, Trypanosoma cruzi
Conditions: SI = IC50 cytotoxicity/IC50 against T. cruzi
Classification field: enter 1 (yes) for Selectivity index values not below 2, 0 (no) for values below it.

{"compound": "COc1cc2occ(-c3ccc4c(c3)OCO4)c(=O)c2cc1O [Compound 24, acicerone]", "target": "T. cruzi amastigotes", "class_label": "1 (yes)"}
{"compound": "COc1cc2c(cc1OC)[C@]1(O)[C@H](OC(C)=O)c3ccc4occc4c3O[C@@H]1CO2 (relative stereo) [Compound 33]", "target": "T. cruzi amastigotes", "class_label": "0 (no)"}
{"compound": "CC(=O)OC(C1COc2ccc3c(c21)OC(c1ccccc1)CC3=O)C(C)(C)O (stereo not drawn) [Compound 13]", "target": "T. cruzi amastigotes", "class_label": "0 (no)"}
{"compound": "CC1(C)C=Cc2c(ccc(-c3coc4cc(O)ccc4c3=O)c2O)O1 [Compound 20, glabrone]", "target": "T. cruzi amastigotes", "class_label": "0 (no)"}
{"compound": "COc1cc(O)ccc1C1COc2cc(O)ccc2C1 (stereo not drawn) [Compound 4, 7,4′-dihydroxy-2′-methoxyisoflavan]", "target": "T. cruzi amastigotes", "class_label": "0 (no)"}
{"compound": "CC1(C)C=Cc2c(ccc(-c3coc4cc(O)c(O)cc4c3=O)c2O)O1 [Compound 21]", "target": "T. cruzi amastigotes", "class_label": "0 (no)"}
{"compound": "COc1cc2c(cc1OC)[C@]1(O)C(=O)c3ccc4c(c3O[C@@H]1CO2)C=CC(C)(C)O4 [Compound 38, tephrosin]", "target": "T. cruzi amastigotes", "class_label": "1 (yes)"}
{"compound": "CC(C)=CCc1c(O)cc2occ(-c3ccc(O)cc3)c(=O)c2c1O [Compound 27, wighteone]", "target": "T. cruzi amastigotes", "class_label": "1 (yes)"}
{"compound": "COc1cc2c(cc1OC)[C@]1(O)C(=O)c3ccc4occc4c3O[C@@H]1CO2 [Compound 36, 12a-hydroxyelliptone]", "target": "T. cruzi amastigotes", "class_label": "1 (yes)"}

----------
Tested on: T. cruzi amastigotes
Assay: Activity against intracellular T. cruzi amastigotes
Type: cell-based, Trypanosoma cruzi
Details: SI = IC50 cytotoxicity/IC50 against T. cruzi
This section presents compounds with their documented Selectivity index values.
parameter_measured: Selectivity index

{"compound": "C=C(C)[C@H]1Cc2c(ccc3c2O[C@@H]2COc4cc(OC)c(OC)cc4[C@@H]2C3=O)O1 [Compound 37, rotenone]", "target": "T. cruzi amastigotes", "recorded_number": 51.7}
{"compound": "COc1c2c(cc3ccoc13)C(=O)[C@@]1(O)c3cc4c(cc3OC[C@H]1O2)OCO4 (relative stereo) [Compound 29, 12a-hydroxypachyrhizone]", "target": "T. cruzi amastigotes", "recorded_number": 1.3}
{"compound": "CC(C)=CCc1c(O)ccc(C(=O)/C=C/c2ccc(O)cc2)c1O [Compound 7, isobavachalcone]", "target": "T. cruzi amastigotes", "recorded_number": 1.7}
{"compound": "CC(C)(O)C(OC(=O)C=Cc1ccccc1)C1COc2ccc3c(c21)OC(c1ccccc1)CC3=O (stereo not drawn) [Compound 14]", "target": "T. cruzi amastigotes", "recorded_number": 5.1}
{"compound": "COc1ccc(-c2coc3cc(OC)c(O)cc3c2=O)cc1 [Compound 25, alfalone]", "target": "T. cruzi amastigotes", "recorded_number": 1.1}
{"compound": "COc1c(-c2coc3cc4c(cc3c2=O)C=CC(C)(C)O4)ccc2c1C=CC(C)(C)O2 [Compound 23, munetone]", "target": "T. cruzi amastigotes", "recorded_number": 5.3}
{"compound": "C=C(C)/C=C/c1c(OC)ccc2c1OC(c1ccccc1)CC2=O (stereo not drawn) [Compound 9, dehydroisoderricin]", "target": "T. cruzi amastigotes", "recorded_number": 1.4}
{"compound": "C=C(C)[C@H]1Cc2cc3c(cc2O1)OC[C@H]1c2cc4c(cc2O[C@@H]31)OCO4 [Compound 17, emoroidocarpan]", "target": "T. cruzi amastigotes", "recorded_number": 1.8}
{"compound": "CC(C)=CCc1cc2c(cc1O)OC[C@@H](c1ccc(O)cc1O)C2 [Compound 3, manuifolin H]", "target": "T. cruzi amastigotes", "recorded_number": 3.7}
{"compound": "COc1cc(O)ccc1C1COc2cc3c(cc2C1)CC(C(C)(C)O)O3 (stereo not drawn) [Compound 6]", "target": "T. cruzi amastigotes", "recorded_number": 0.8}
{"compound": "Oc1ccc2c(c1)OC[C@H]1c3cc4c(cc3O[C@@H]21)OCO4 [Compound 16, maackiain]", "target": "T. cruzi amastigotes", "recorded_number": 1.3}
{"compound": "COc1cc2c(cc1OC)[C@@H]1C(=O)c3ccc4occc4c3O[C@@H]1CO2 [Compound 35, elliptone]", "target": "T. cruzi amastigotes", "recorded_number": 5.4}
{"compound": "CC(C)=CCc1cc2c(cc1O)OCC(c1ccc(O)cc1)C2O (stereo not drawn) [Compound 2, bavaisoflavanol]", "target": "T. cruzi amastigotes", "recorded_number": 1.1}
{"compound": "COc1cc(O)ccc1[C@@H]1COc2cc(O)c(CC=C(C)C)cc2C1 [Compound 1, 2′-O-methylmanuifolin H]", "target": "T. cruzi amastigotes", "recorded_number": 3.5}
{"compound": "COc1ccc(-c2coc3cc(O)ccc3c2=O)cc1 [Compound 22, formononetin]", "target": "T. cruzi amastigotes", "recorded_number": 1.0}
